- system: α₁ receptors
- experiment.notes: [3H]prazosin binding (α1 receptors), rat cerebral cortex membranes
- run.conditions: rat cerebral cortex crude membranes, [3H]prazosin 0.35 nM, 25°C 30 min; read-out: Receptor Binding IC50 (nM) α1
measured.property: IC50 (nM)
Please respond with the number in nM and leave the unit unwritten.

Worked cases, answers included:
[in] Field request: IC50 | item: COc1ccccc1N1CCN(CCCNC(=O)c2cccc3c(=O)c(-c4ccccc4)coc23)CC1 [Example 64, dimethanesulphonate]
[out] 40

[in] Please look up its IC50: COc1ccccc1N1CCN(CCCC(=O)c2cccc3c(=O)c(C)c(-c4ccccc4)oc23)CC1.CS(=O)(=O)O [methanesulphonate]
[out] 22

[in] IC50 lookup needed for "COc1ccccc1N1CCN(CCCNC(=O)c2cccc3c(=O)c(C)c(C4CCCCC4)oc23)CC1" , thanks.
[out] 9

[in] Can you look up the measured IC50 of "COc1ccccc1N1CCN(CCCSc2cccc3c(=O)c(C)c(-c4ccccc4)oc23)CC1" for me?
[out] 86

[in] Dear colleague, I am looking for the recorded IC50 of the following compound: COc1ccccc1N1CCN(CCCOc2cccc3c(=O)c(C)c(-c4ccccc4)oc23)CC1.Cl.Cl [Example 40, dihydrochloride]
[out] 75

Next:
[in] Consider the compound shown here: COc1ccccc1N1CCN(CCNC(=O)Nc2cccc3c(=O)c(C)c(-c4ccccc4)oc23)CC1.CS(=O)(=O)O [Example 38, methanesulphonate] What is its recorded IC50?
[out] 20

[in] Given the entry COc1ccccc1N1CCN(CCCN(OC2CCCCO2)C(=O)c2cccc3c(=O)c(C)c(-c4ccccc4)oc23)CC1 (stereo not shown) [Example 68, methanesulphonate hemihydrate] , report its measured IC50.
[out] 29

From: patent EP0558245A1
